src = the supplement of paper PMC6555819

Record form. Attribute: PBM binding z-score. Fill in for each entry.
Test system: LXRa:RXRa (NR concentration 270 nM, RXRa partner concentration 90 nM)
Test: PBM binding z-score (relative to random genomic background probes); higher = stronger binding; sequences stand for … in GC…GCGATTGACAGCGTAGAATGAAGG
One number for each entry.

Example sequences with recorded PBM binding z-score:
{"biosequence": "CGAACTAGGTCATCAAGGACAGTGAATACATTGA", "measuredTarget": "LXRa:RXRa (NR concentration 270 nM, RXRa partner concentration 90 nM)", "PBM binding z-score": 2.23}
{"biosequence": "CAACCTAGGTCAAAGGTCAAAGTCGAGCCAACCA", "measuredTarget": "LXRa:RXRa (NR concentration 270 nM, RXRa partner concentration 90 nM)", "PBM binding z-score": 7.41}
{"biosequence": "TCTATTAGTTGATGGGCAACCGACGAGTCCGTTT", "measuredTarget": "LXRa:RXRa (NR concentration 270 nM, RXRa partner concentration 90 nM)", "PBM binding z-score": 0.502}
{"biosequence": "AGAATGAGGTTATTAAGATCAGGTAATTGCGGTC", "measuredTarget": "LXRa:RXRa (NR concentration 270 nM, RXRa partner concentration 90 nM)", "PBM binding z-score": 1.73}
{"biosequence": "TCCATTAGTTGAAGGGCAACCGACGAGTCCGTTT", "measuredTarget": "LXRa:RXRa (NR concentration 270 nM, RXRa partner concentration 90 nM)", "PBM binding z-score": 1.35}
{"biosequence": "GATTCAGGGTCAAGGCCAGAGTACGCGTATTGAT", "measuredTarget": "LXRa:RXRa (NR concentration 270 nM, RXRa partner concentration 90 nM)", "PBM binding z-score": 5.3}
{"biosequence": "ATCTCTAGGTAACCAAGCTCAGTGAATGCCGAAC", "measuredTarget": "LXRa:RXRa (NR concentration 270 nM, RXRa partner concentration 90 nM)", "PBM binding z-score": -0.156}
{"biosequence": "TAGCCTAGGTAATGCGGGCCAGTATAGTGTCGGC", "measuredTarget": "LXRa:RXRa (NR concentration 270 nM, RXRa partner concentration 90 nM)", "PBM binding z-score": -1.07}

I would be grateful if you could provide PBM binding z-score for each of the following entries.
1. CCGACTGGGGCAGCAAGGTTACCATACCATCCGG
2. CCTACTGGGCCACCAAAGGTCATTGATTCAGTGA
3. TTACCAAGGTGAGCTGGGGTCGTTGATCCAACTC
4. ATCGAAAGGTCGAGCTGAGTATAGAGAAAGGGAA

1: -0.101; 2: 5.73; 3: 0.819; 4: 3.69

----------
Tested on: RXRa DBDmut IVT, anti-RXR (DBD mutation: RXRa K156A/R161A, NR concentration 90 nM)
Experiment: PBM binding z-score (relative to random genomic background probes); higher = stronger binding; sequences stand for … in GC…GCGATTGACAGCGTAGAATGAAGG
Record form. Attribute: PBM binding z-score. Fill in for each entry.
One number for each entry.

{"biosequence": "TATCCTAGGTCATTGGGCCAGTATAGTACGCATC", "observedValue": 2.33}
{"biosequence": "ATCGAAAGGTCGATGTGAGTATAGAGAAAGGGAA", "observedValue": 1.16}
{"biosequence": "TAGCCTAGGTCATTCATGGGCCAGTATAGAAAGC", "observedValue": 1.84}
{"biosequence": "GCTGACGGGTCAAAGGTTATAGCATGAATAGAAT", "observedValue": 1.66}
{"biosequence": "CGTCCAAGGTCAATGCTAGGTCTGTGAAAGCATT", "observedValue": 3.79}

I would be grateful if you could provide PBM binding z-score for each of the following entries.
1. GCTGATAGGTCAACTGATGGTCAGCTAAAGCTCG
2. TCGAGTAGGTTAGGGGCAGTCAGAATGGCGTCGA
3. ACAGACAAGTGAGTGAAGGTAACTCAGCTGGACG
4. TTAGCAAGGTGAAAGGTCGTTGATGCACGCCTTG
5. GCTAGCATGCCATTTGGGTCACTCAATGACGGGC
6. TCAGACAGGTGAAGGTAACTCATGTACGCAGTCG

[1.65, 0.0348, -0.283, 0.67, -0.283, 1.32]

I would be grateful if you could provide PBM binding z-score for each of the following entries.
1. CGTCCAAGGTAAGCAGGTCAGTGAAAGCGACGTG
2. CCTTACGGGTCACGAGGTTATAGTACGACGAGCG

1: -0.436; 2: 1.55

I would be grateful if you could provide PBM binding z-score for each of the following entries.
1. GCTTACGGGTCAAAGGTTGTAGCATGAATAGAAT
2. TGAATGAGGTTAAAGAGCAGGGAACGTGGCGTCG
3. ATACCCAGGTGATCGTGAGGTCGTTGATACTAAC
4. CCAGACAGGTGGGAAGGTAACTCAGCCTCGATTA
5. TCTATCAGGCCAGAGGGTCACTCAAGAGGTACGG
6. CGTCCACGGTCAAGGTCAGTGAAAGAGACTCGAA
7. CCAGACAGGTGAGAAGGGAACTCAGCCTCGATTA
8. CGAACGAGGGCATGAGTTGAGAGCAAATGCCGAT

2.43
1.01
0.432
-0.499
0.811
0.716
0.063
1.8

I would be grateful if you could provide PBM binding z-score for each of the following entries.
1. TCTATTAGATGATTAGGGCAACCGAAACAGCGGA
2. CCGACTGGGGCAGAAAGCTTACCATACCATCCGG
3. TCTAGTTGGTCAAAGGTCACACATTCGAAATGCG
4. AGAACGAGGGCCCGCTGAGTTGATAGCAGAGTAG
5. CCGACTGGGGTAGAAAGGTTACCATACCATCCGG
6. TTACCAAGGTGAGTTGAGGTCGTTGATCCAACTC

1.02
-0.744
1.62
-0.659
-1.26
0.713

----------
System: RXRa homodimer (NR concentration 180 nM)
Experiment: PBM binding z-score (relative to random genomic background probes); higher = stronger binding; sequences stand for … in GC…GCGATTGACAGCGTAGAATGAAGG
measurementName: PBM binding z-score
Give bare numbers.

{"biosequence": "GCGACTGGGGCAAAACAGGTTACCATAAGGTTGG", "PBM binding z-score": 0.658}
{"biosequence": "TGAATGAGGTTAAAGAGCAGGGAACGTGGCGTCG", "PBM binding z-score": 3.19}
{"biosequence": "GCTAGTTGGCCAGTAAAAGGTCACACACCGGTCG", "PBM binding z-score": 5.46}

I would be grateful if you could provide PBM binding z-score for each of the following entries.
1. CTACCAAGGTGAACAAGCTCGTTGATTACTATTC
2. ACGATTAGTTGACTTAGGGCAACCGATACGACGC
3. CCGACTGGGGCATAAGGTCACCATAAGCCAGCCC
4. CCTTACGGGTCACGAGTTTATAGCACGACGAGCG
5. ATCTCTAGGTAAAGATAGTTCAGTAAATGCAAAT
6. TCTTGTAGATGAATAGAGGTTAAGAAAGTGCGCT
7. CCTAGCAGGCCAATCTGGGTCACACAAGGCTTGA

1. 0.526
2. 0.512
3. 4.29
4. 5.78
5. 0.446
6. 1.68
7. 1.63

I would be grateful if you could provide PBM binding z-score for each of the following entries.
1. TCTAGTTGGTCAAAGGTCATACACTCGAAATGCG
2. CTAACTAGGTCAAGGACAGTGAATCTCCGCACGC

8.07
2.64

----------
Test system: PPARg:RXRa 30nM:10nM, anti-RXR (NR concentration 30 nM, RXRa partner concentration 10 nM)
Test: PBM binding z-score (relative to random genomic background probes); higher = stronger binding; sequences stand for … in GC…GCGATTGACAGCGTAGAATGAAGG
Record form. Attribute: PBM binding z-score. Fill in for each entry.
Answers are plain numbers.

Example sequences with recorded PBM binding z-score:
{"biosequence": "TCATATAGGTAATACAGGTGAAAGCCGGCATCTA", "PBM binding z-score": 3.73}
{"biosequence": "CGAGCGAGGGCATGAGTTGATAGCAAATGCCGAT", "PBM binding z-score": -0.503}

I would be grateful if you could provide PBM binding z-score for each of the following entries.
1. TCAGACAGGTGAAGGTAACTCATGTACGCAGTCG
2. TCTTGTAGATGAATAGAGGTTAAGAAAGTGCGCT
3. TAGCCTAGGTCATCGGGCCAGTATAGTACGCATC

1: 4.07; 2: 3.31; 3: 0.482

I would be grateful if you could provide PBM binding z-score for each of the following entries.
1. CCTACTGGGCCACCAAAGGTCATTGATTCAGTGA
2. CCTTACGGGTCACTCCAGGTGATAGCATCGGAGT
3. ACAGACAGGTGAGTGAAGGTAATTCAGCTGGACG
4. CCTCGGAGGACAACAGGAGGTCAGAACTGCCAGA
5. CAAACTAGGTCACCGGAAGGTAAAAGTCCGCATG
6. ACTAGCAGGCCAAGGGTCACTCAGGATTAGTCCG

2.81
1.31
-0.212
-0.754
5.39
6.72

Using the record for `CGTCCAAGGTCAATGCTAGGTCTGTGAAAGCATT` , report its PBM binding z-score.
0.804
